system: LoVo cells; experiment: MTT cytotoxicity assay; assay type: cell-based, human; conditions: read-out: IC50 (μM) ± S.D. LoVo; 48 hrs treatment, MTT test
reported.endpoint: IC50 (µM)
Respond with the bare value in µM.

The recorded IC50 for entry O=C1[O][Pt]2([NH][C@@H]3CCCC[C@H]3[NH]2)[O]C1=O [OxPt, oxaliplatin] equals 2.05

---

Reported values of IC50 for individual entries
tested on: HFF-1 fibroblasts; assay: MTT cytotoxicity assay, non-tumour cells; assay type: cell-based, human; conditions: read-out: IC50 (μM) ± S.D. HFF-1, 72 hrs treatment, MTT test
Respond with the bare value in µM.

The recorded IC50 for entry O=C1[O][Pt]2([NH][C@@H]3CCCC[C@H]3[NH]2)[O]C1=O equals 27.1

The recorded IC50 for entry N.N.[Cl][Pt][Cl] [CisPt, Cisplatin] equals 23.4

---

system: MRC-5 fibroblasts; experiment: MTT cytotoxicity assay, non-tumour cells; format: cell-based, human; conditions: read-out: IC50 (μM) ± S.D. MRC-5, 72 hrs treatment, MTT test
reported.endpoint: IC50
Please give the number followed by its unit.

# molecule, IC50
records = [
    ("O=C1[O][Pt]2([NH][C@@H]3CCCC[C@H]3[NH]2)[O]C1=O", "23.9 µM"),
]

Switching to the query record.
The recorded IC50 for entry N.N.[Cl][Pt][Cl] [CisPt, Cisplatin] equals 19.7 µM
